assay: Primary qHTS for inhibitors of nuclear receptor binding SET domain protein 2 (NSD2) in an isogenic RCH-ACV NSD2 p.E1099K mutant (9B) (AID 1645876); also: nearly all actives have a fitted effect of over 70% in size
study-conditions: RCH-ACV (leukaemia line) NSD2 E1099K (9B) viability, CellTiter-Glo, 72 h; series mostly up to 44.9 µM
Inconclusive results are not listed. Calls of active or inactive are those of the source. Calls follow the shape of the dose curve; as a rule, active = well fitted inhibition curve with a large enough effect; inconclusive = small, poorly fitted or top-dose-only effect; inactive = flat fitted curve, though single readings scatter.
Lab note: assign the record to one of active, inactive

Exercise: For Cc1cccc(NC(=O)c2ccc(C(F)(F)F)cc2C(=O)O)n1 , what call appears in the results of this test?
Solution: inactive

Exercise: For C[N@@+]1(CC2CC2)CC[C@]23c4c5ccc(O)c4O[C@H]2C(=O)CC[C@@]3(O)[C@H]1C5 , what call appears in the results of this test?
Solution: inactive

Exercise: For CC(=O)OC[C@]12C[C@H](O)C(C)=C[C@H]1O[C@@H]1[C@H](O)[C@@H](OC(C)=O)[C@@]2(C)[C@]12CO2 , what call appears in the results of this test?
Solution: active

Exercise: For Fc1cc(F)c2c(c1)C1C=CCC1C(c1cccnc1)N2 (stereo not drawn) , what call appears in the results of this test?
Solution: active

Exercise: For CCCCCn1cc(C(=O)C2C(C)(C)C2(C)C)c2ccccc21 , what call appears in the results of this test?
Solution: inactive

Exercise: For CC[C@H](O)[C@@H](C)[C@H]1O[C@@H]1C[C@H](C)/C=C/C=C(\C)[C@H]1OC(=O)C[C@H](O)CC[C@@](C)(O)[C@@H](OC(C)=O)/C=C/[C@@H]1C , what call appears in the results of this test?
Solution: active

Exercise: For CC(C)[C@H]1OC(=O)[C@H](Cc2ccccc2)N(C)C(=O)[C@@H](C(C)C)OC(=O)[C@H](Cc2ccccc2)N(C)C(=O)[C@@H](C(C)C)OC(=O)[C@H](Cc2ccccc2)N(C)C1=O , what call appears in the results of this test?
Solution: active

Exercise: For COC1CC(O[C@H]2CC[C@]3(C)C4CC[C@]5(C)[C@@H](C6=CC(=O)OC6)[C@@H](OC(C)=O)C[C@]5(O)C4CC[C@@H]3C2)OC(C)C1O (stereo partly drawn) , what call appears in the results of this test?
Solution: active
